These entries and their values trace back to PubChem BioAssay (NCI).

Recorded measurements of growth, one per entry
Test system: PC-3 prostate
Method notes: NCI-60 one-dose screen, 48 h (100 = growth as untreated, 0 = no growth, -100 = all killed)
Measurement conditions: 10 µM unless noted
Method: Growth inhibition of the PC-3 human tumor cell line is measured as a screen for anti-cancer activity. Cells are grown in 96 well plates and exposed to the test compound for 48 hours. Compounds are tested at a single concentration, which is 10^-5 M for most compounds. The reported endpoint is percent growth (GI% or GIPRCNT), where numbers from 0 - 100% represent growth inhibition, and numbers from -100% - 0 represent cell death. For example, a value of 40 represents 60% growth inhibition. […]
The panel holds about 83,000 compounds, 20% with a hit somewhere; the sample as a whole holds those more often.
A number alone suffices; assume %.

Sample answers from the record:
1. Nc1n[nH]c(=S)n1-c1ccc(Cl)cc1 :: 97.1
2. CCOC(=O)C(CNc1ccccc1)C(=O)OCC :: 98.2
3. NC(=O)c1ccccc1OCC(O)CO (configuration not stated) :: 103

Qu. Form field - read-out: growth; system: PC-3 prostate; submitted item: "Clc1ccc(NC(Nc2ccc(Cl)cc2)C(Cl)(Cl)Cl)cc1"
Ans. 91.9

Qu. Can you handle "O=[N+]([O-])c1ccc(N/N=C\c2cc(Br)ccc2O)nc1" next?
Ans. 25.8

Qu. Can you handle "COc1ccc2ccccc2c1/C=N/N1CCCCC1" next?
Ans. 95.9

Qu. Can you handle "COc1cc(C(=O)N/N=C/c2ccc(N(C)C)cc2)cc(OC)c1OC" next?
Ans. 25.4

Qu. Can you handle "Cc1n[nH]c(=O)n(/N=C\c2c[nH]c3ccccc23)c1=O" next?
Ans. 97.9

Qu. Can you handle "COc1cc(C(=O)c2ccc3c(c2)OCO3)cc(OC)c1OC" next?
Ans. 29.3

Qu. Can you handle "COc1cc(-c2nccc3cc4c(cc23)OCO4)cc(OC)c1OC" next?
Ans. 29.5

Qu. Can you handle "Cc1ccc2nc3c(nc2c1)-c1cccc2cccc-3c12" next?
Ans. 87.4

Qu. Can you handle "COc1ccc(S(=O)(=O)N2CCOCC2)cc1NC(=O)c1[nH]c(C)c2c1CCCCC2=O" next?
Ans. 46.4

###

Tested on: CCRF-CEM leukemia
Method notes: NCI-60 one-dose screen, 48 h (100 = growth as untreated, 0 = no growth, -100 = all killed)
Measurement conditions: 10 µM unless noted
Description: Growth inhibition of the CCRF-CEM human tumor cell line is measured as a screen for anti-cancer activity. Cells are grown in 96 well plates and exposed to the test compound for 48 hours. Compounds are tested at a single concentration, which is 10^-5 M for most compounds. The reported endpoint is percent growth (GI% or GIPRCNT), where numbers from 0 - 100% represent growth inhibition, and numbers from -100% - 0 represent cell death. For example, a value of 40 represents 60% growth inhibition. […]
About 83,000 compounds went through this panel and 20% of them were active in at least one assay; those are over-represented in the sample as a whole. Calls of active or inactive are those of the source. The calls were made as follows: active = growth percent below 10; inactive = the rest.
Recorded measurements of growth, one per entry

Sample answers from the record:
1) O=C1c2c(O)cc(O)cc2OC(c2ccc(O)c(O)c2)C1O (configuration not stated) :: 97.7% (inactive)
2) COc1ccc2ccccc2c1/C=N/N1CCCCC1 :: 96.7% (inactive)
3) Nc1nc(SC/C=C/CCl)c2[nH]cnc2n1 :: 96.6% (inactive)
4) Cn1c(=O)n(-c2ccc(C(C)(C)C#N)cc2)c2c3cc(-c4cnc5ccccc5c4)ccc3ncc21 :: 10.1% (inactive)
5) O=C(O)c1cc(C(=O)O)cc([N+](=O)[O-])c1 :: 94.9% (inactive)
6) Cc1ccc(S(=O)(=O)Nc2nc3ccccc3nc2Nc2ccc3nsnc3c2)cc1 :: 44.2% (inactive)

API: the following record is the query input.
Qu. Entry under review: "CNC(=O)c1cccnc1" . Reported growth?
Ans. 87.9% (inactive)
